Values were extracted from ChEMBL document CHEMBL6074622.

Experiment: Drug level in SLC3A1-knockout mouse urine assessed as (2R)-2-amino-3-[[(2R)-2-amino-3-(1,8-diazaspiro[4.5]decan-8-yl)-3-oxo-propyl]disulfanyl]propanoic acid metabolite concentration in urine at 150 micromol/kg, po measured after 24 hrs
Assay type: ADME, organism-based
Conditions: in vivo, dose 150 µmol/kg, read-out: Ct
MEASURED_PARAMETER: concentration (nM)
Give a bare numeral; the unit nM is implied.

Fill blank: measured concentration of the molecule `N[C@@H](CSSC[C@H](N)C(=O)N1CCC2(CCCN2)CC1)C(=O)N1CCC2(CCCN2)CC1` is ____. 2100

---

Test: Cmax in Slc3a1-knockout mouse by measuring (2R)-2-amino-3-[[(2R)-2-amino-3-(1,8-diazaspiro[4.5]decan-8-yl)-3-oxo-propyl]disulfanyl]propanoic acid metabolite at 150 micromol/kg, po or 30 micromol/kg, iv measured upto 24 hrs by LC-MS/MS analysis
Format: ADME, organism-based
Details: in vivo, dose 150 µmol/kg
MEASURED_PARAMETER: Cmax (µM)
# output: bare number, implied unit µM

Give the measured Cmax of `N[C@@H](CSSC[C@H](N)C(=O)N1CCC2(CCCN2)CC1)C(=O)N1CCC2(CCCN2)CC1` . 16.9
